molecular target: M2PYK (Homo sapiens, UniProt P14618); construct: gene PKM; recombinant His-tagged WT M2 isoform; experiment: PYK enzyme activity assay, dose response with and without DTT and Ser; type: biochemical; conditions: read-out: IC50
Sequence (P14618 2-531): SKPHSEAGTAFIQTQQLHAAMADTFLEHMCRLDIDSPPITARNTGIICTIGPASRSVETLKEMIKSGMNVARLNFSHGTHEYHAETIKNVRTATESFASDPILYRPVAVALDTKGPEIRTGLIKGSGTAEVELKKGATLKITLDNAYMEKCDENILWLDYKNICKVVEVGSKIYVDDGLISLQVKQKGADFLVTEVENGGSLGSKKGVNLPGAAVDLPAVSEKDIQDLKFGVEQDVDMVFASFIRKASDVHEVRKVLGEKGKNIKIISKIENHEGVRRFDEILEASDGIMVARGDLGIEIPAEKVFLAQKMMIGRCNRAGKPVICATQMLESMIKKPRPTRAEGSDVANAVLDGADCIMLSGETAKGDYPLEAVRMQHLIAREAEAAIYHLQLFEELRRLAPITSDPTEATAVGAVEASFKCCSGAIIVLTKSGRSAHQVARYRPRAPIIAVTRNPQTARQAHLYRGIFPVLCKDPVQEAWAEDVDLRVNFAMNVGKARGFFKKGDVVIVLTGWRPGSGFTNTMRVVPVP
value_kind: pIC50
One number for each entry, as −log10 of the molar value.

M2PYK (Homo sapiens, UniProt P14618) data for C[C@H](N)C(=O)O ; its pIC50: 4.35

---

molecular target: M2PYK (Homo sapiens); construct: gene PKM; recombinant His-tagged WT M2 isoform; test: PYK enzyme activity assay, dose response with and without DTT and Ser; format: biochemical
value_kind: pIC50
Numbers only, as −log10 of the molar value.

In plain terms, N[C@@H](Cc1ccccc1)C(=O)O [L-phenylalanine] has a documented pIC50 of 4.24
